- assay target: Somatostatin receptor type 4 (Homo sapiens)
- Sequence (P31391 whole entry): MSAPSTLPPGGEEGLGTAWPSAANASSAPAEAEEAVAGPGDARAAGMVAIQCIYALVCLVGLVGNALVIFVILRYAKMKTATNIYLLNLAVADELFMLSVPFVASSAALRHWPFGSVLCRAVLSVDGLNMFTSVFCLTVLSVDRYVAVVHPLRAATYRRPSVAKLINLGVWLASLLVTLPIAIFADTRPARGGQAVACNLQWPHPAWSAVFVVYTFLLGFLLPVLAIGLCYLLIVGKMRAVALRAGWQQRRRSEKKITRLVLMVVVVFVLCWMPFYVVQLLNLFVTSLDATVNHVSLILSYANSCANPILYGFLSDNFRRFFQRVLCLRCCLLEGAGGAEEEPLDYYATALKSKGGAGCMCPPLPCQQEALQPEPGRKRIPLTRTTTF
Positions of bridges follow the written chain, without caps; N, C: chain ends. Non-standard residues stand in square brackets, D forms with d. Residues, ends and D or L forms follow the SMILES beside them. Phe(4-NO2) = N[C@@H](Cc1ccc([N+](=O)[O-])cc1)C(=O)O; dBip = N[C@H](Cc1ccc(-c2ccccc2)cc1)C(=O)O; 2Nal = N[C@@H](Cc1ccc2ccccc2c1)C(=O)O; 3Pal = N[C@@H](Cc1cccnc1)C(=O)O
measured attribute: pIC50
# pIC50: negative log10 of molar concentration; output just the value

Look over these answered cases.
[[record]]
molecule = "CC(C)[C@@H]1NC(=O)[C@H](CCCCN)NC(=O)[C@@H](Cc2c[nH]c3ccccc23)NC(=O)[C@H](Cc2cccnc2)NC(=O)[C@H](NC(=O)[C@@H](N)Cc2ccccc2)CSSC[C@@H](C(=O)N[C@@H](Cc2ccc3ccccc3c2)C(N)=O)NC1=O (H-F[dC][3Pal][dW]KVC[2Nal]-NH2; disulfide 2-7)"
numeric_result = 6.00

[[record]]
molecule = "CC(C)[C@@H]1NC(=O)[C@H](CCCCN)NC(=O)[C@@H](Cc2c[nH]c3ccccc23)NC(=O)[C@H](Cc2ccc(O)cc2)NC(=O)[C@H](NC(=O)[C@H](N)Cc2ccc(-c3ccccc3)cc2)CSSC[C@@H](C(=O)N[C@@H](Cc2ccc3ccccc3c2)C(N)=O)NC1=O (H-[dBip][dC]Y[dW]KVC[2Nal]-NH2; disulfide 2-7)"
numeric_result = 6.00

[[record]]
molecule = "CC(C)[C@@H]1NC(=O)[C@H](CCCCN)NC(=O)[C@@H](Cc2c[nH]c3ccccc23)NC(=O)[C@H](Cc2ccc(O)cc2)NC(=O)[C@H](NC(=O)[C@@H](N)Cc2ccc([N+](=O)[O-])cc2)CSSC[C@@H](C(=O)N[C@@H](Cc2ccc(O)cc2)C(N)=O)NC1=O (H-[Phe(4-NO2)][dC]Y[dW]KVCY-NH2; disulfide 2-7)"
numeric_result = 6.20


Please turn your attention to the following entry.
pIC50 value, target or system Somatostatin receptor type 4 (Homo sapiens), for C[C@@H](O)[C@H](NC(=O)[C@@H]1CSSC[C@@H](NC(=O)[C@@H](N)Cc2ccc(O)cc2)C(=O)N[C@@H](Cc2cccnc2)C(=O)N[C@H](Cc2c[nH]c3ccccc23)C(=O)N[C@@H](CCCCN)C(=O)N[C@@H]([C@@H](C)O)C(=O)N1)C(N)=O : 6.00
